# maps each entry to its cytotoxicity at 70.5 h
assay: Human HepG2 cell viability assay in 384 well format; type: toxicity, cell-based; design: dose 125 nL, time 70.5 hour; concentration not given beside the values; details: HepG2 cells, read-out: Inhibition
Respond with the bare value in %.

Worked examples, 3 compounds total:
COMPOUND: O=C(C1CCOC1)N1CCC2(CCCNC2)CC1 (stereo not drawn)
UNIT TEXT: %
cytotoxicity at 70.5 h: -8.86
//
COMPOUND: CC1CCCCN1S(=O)(=O)NCCN/C(O)=C1/N=CC=CC1=O (stereo not drawn)
UNIT TEXT: %
cytotoxicity at 70.5 h: -5.82
//
COMPOUND: COCC(=O)N1CCCC1c1cc(Nc2nnc(C)s2)nc(C)n1 (stereo not drawn)
UNIT TEXT: %
cytotoxicity at 70.5 h: 21.4

-- ask # input compound: COC(=O)c1ccc(C(=O)NS(=O)(=O)c2cncc(Br)c2)cc1 ; wanted: its cytotoxicity at 70.5 h
-- reply -3.96

-- ask Please give the result for O=C(N1CCCC1)N1CCOCC2(C1)CN(c1ccccc1)C(=O)CO2 (stereo not drawn) too.
-- reply -3.56

-- ask Please give the result for CC(C)COc1ccccc1C(N)CC(C)C (stereo not drawn) too.
-- reply -10.1

-- ask Please give the result for COc1ccc(COCC(O)CNC(=O)c2cc(C)no2)cc1 (stereo not drawn) too.
-- reply -4.49

-- ask Please give the result for O=C(CCC(=O)N1CCc2[nH]c3ccccc3c2C1)NCc1ccco1 too.
-- reply -8.42

-- ask Please give the result for Cn1ccc(C(=O)N2C[C@@H]3CCN(c4cnccn4)C[C@@H]3C2)n1 too.
-- reply -9.79

-- ask Please give the result for CC(Oc1ccccc1C(F)(F)F)C(=O)NS(=O)(=O)C(C)C (stereo not drawn) too.
-- reply 1.98

-- ask Please give the result for c1cc2c(cc1CN1CC[C@H]3[C@H]1CCN3CC1CC1)OCO2 too.
-- reply -1.51

-- ask Please give the result for COc1ccc(OCCN2CCC(c3ccnn3CCO)CC2)cc1 too.
-- reply -5.41

-- ask Please give the result for CC(=O)c1cc(CN2C[C@H]3CC[C@@H]2CN(S(C)(=O)=O)C3)cs1 too.
-- reply 13.8
